target: EB3 interactions with IP3R3-GFP (Homo sapiens, UniProt Q9UPY8); assay: Competitive binding: inhibition of EB3 interaction with IP3R3-GFP in vitro; assay type: biochemical; conditions: 250 nM
Sequence (Q9UPY8 whole entry): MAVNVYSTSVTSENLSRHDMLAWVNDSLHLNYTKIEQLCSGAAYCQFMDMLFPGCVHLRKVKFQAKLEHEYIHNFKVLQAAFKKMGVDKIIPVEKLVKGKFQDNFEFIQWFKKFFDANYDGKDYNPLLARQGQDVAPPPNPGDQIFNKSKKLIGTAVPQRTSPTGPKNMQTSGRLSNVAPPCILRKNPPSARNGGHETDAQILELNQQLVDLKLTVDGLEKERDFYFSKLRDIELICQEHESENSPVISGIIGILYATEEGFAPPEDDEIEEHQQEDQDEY
Starred links: 1 amine or outer side, 2 acyl side, 3 side chain; linkers in the order of their positions; H or OH if unused. Non-standard residues stand in square brackets, D forms with d. Residues, ends and D or L forms follow the SMILES beside them. X5 = O=C([C@@H]1[C@@H]2CCCC[C@@H]2CN1[*:1])[*:2]; Leu(4,5-dehydro) = C=C(C)C[C@H](N)C(=O)O; Oic = O=C(O)[C@@H]1C[C@@H]2CCCC[C@@H]2N1; dVal(3-OH) = CC(C)(O)[C@@H](N)C(=O)O; Val(3-OH) = CC(C)(O)[C@H](N)C(=O)O; cisHyp = O=C(O)[C@@H]1C[C@H](O)CN1; tBuAla = CC(C)(C)C[C@H](N)C(=O)O; X1 = O=C(CC(O)CN[*:1])[*:2]; 3Amb = NCc1cccc(C(=O)O)c1; 4Amb = NCc1ccc(C(=O)O)cc1
ASSAY ENDPOINT: inhibition at 0.25 µM (%)
Give your result in % as a bare value.

Ask: State, in one line, measured inhibition at 0.25 µM of CC[C@H](C)[C@H](NC(=O)[C@H](NC(=O)[C@@H]1C[C@H](O)CN1C(=O)[C@H](CC(C)(C)C)NC(=O)c1cccc(CNC(=O)[C@H](NC(=O)[C@@H](N)Cc2ccccc2)C(C)(C)O)c1)C(C)(C)O)C(=O)O [compound 042] (H-F[dVal(3-OH)][3Amb][tBuAla][cisHyp][dVal(3-OH)]I-OH)
Reply: 36

Ask: State, in one line, measured inhibition at 0.25 µM of C=C(C)C[C@H](NC(=O)CC(O)CNC(=O)[C@@H]1C[C@@H]2CCCC[C@@H]2N1C(=O)[C@H](CC(=C)C)NC(=O)c1ccc(CNC(=O)[C@H](NC(=O)[C@H](N)Cc2ccccc2)C(C)(C)O)cc1)C(=O)O (stereo partly shown) [compound 105] (H-[dF][dVal(3-OH)][4Amb][Leu(4,5-dehydro)][Oic][X1][Leu(4,5-dehydro)]-OH)
Reply: 70

Ask: State, in one line, measured inhibition at 0.25 µM of CC[C@H](C)[C@H](NC(=O)[C@@H](NC(=O)[C@@H]1C[C@H](O)CN1C(=O)[C@H](CC(C)(C)C)NC(=O)[C@H](CCC(=O)O)NC(=O)[C@H](NC(=O)[C@@H](N)Cc1ccccc1)C(C)(C)O)[C@@H](C)O)C(=O)O [compound 038] (H-F[dVal(3-OH)]E[tBuAla][cisHyp]TI-OH)
Reply: 36

Ask: State, in one line, measured inhibition at 0.25 µM of CC[C@H](C)[C@H](NC(=O)[C@@H](NC(=O)[C@@H]1CCCN1C(=O)[C@H](CC(C)(C)C)NC(=O)[C@@H](CCC(=O)O)NC(=O)[C@@H](NC(=O)[C@@H](N)Cc1ccccc1)C(C)(C)O)[C@@H](C)O)C(=O)O [compound 016] (H-F[Val(3-OH)][dE][tBuAla]PTI-OH)
Reply: 48

Ask: State, in one line, measured inhibition at 0.25 µM of C=C(C)C[C@H](NC(=O)[C@H](CCC(=O)O)NC(=O)[C@H](NC(=O)[C@H](N)Cc1ccccc1)C(C)(C)O)C(=O)N1CCC[C@H]1C(=O)N[C@H](C(=O)N[C@H](C(=O)O)[C@@H](C)CC)[C@@H](C)O [compound 036] (H-[dF][dVal(3-OH)]E[Leu(4,5-dehydro)]PTI-OH)
Reply: 40

Ask: State, in one line, measured inhibition at 0.25 µM of CC(C)(C)C[C@H](NC(=O)CC(O)CNC(=O)[C@@H]1C[C@@H]2CCCC[C@@H]2N1C(=O)[C@H](CC(C)(C)C)NC(=O)c1ccc(CNC(=O)[C@H](NC(=O)[C@H](N)Cc2ccccc2)C(C)(C)O)cc1)C(=O)O (stereo partly shown) [compound 101] (H-[dF][dVal(3-OH)][4Amb][tBuAla][Oic][X1][tBuAla]-OH)
Reply: 41

Ask: State, in one line, measured inhibition at 0.25 µM of CC[C@H](C)[C@H](NC(=O)[C@H](NC(=O)[C@@H]1[C@@H]2CCCC[C@@H]2CN1C(=O)[C@H](CC(C)(C)C)NC(=O)[C@H](CCC(=O)O)NC(=O)[C@H](NC(=O)[C@@H](N)Cc1ccccc1)C(C)(C)O)C(C)(C)O)C(=O)O [compound 040] (H-F[dVal(3-OH)]E[tBuAla][X5][dVal(3-OH)]I-OH)
Reply: 50

Each recorded value in this set is attributed to paper PMC12627862.
